Origin of measurements: paper PMC9364363

# Test system: Mtb H37Ra^lux
# method_description: microbe, parasite or virus in culture
# Format: cell-based, Mycobacterium tuberculosis
# condition_details: Mycobacterium tuberculosis, H37RA, 168 h, read-out: Mtb H37Ra^lux IC90 (MIC)
For each record, check the reported MIC: if it is below 10 µM write y, else write n.

Recorded results for 4 molecules are shown here.
Cc1nc2sc3ccccc3n2c1C(=O)N1CCN(CCn2cc(-c3ccc(C(C)(C)C)cc3)nn2)CC1	y
CCCCc1cn(CCN2CCN(C(=O)c3c(C)nc4sc5ccccc5n34)CC2)nn1	n
Cc1nc2sccn2c1C(=O)N1CCN(CCn2cc(CSc3nc4ccccc4[nH]3)nn2)CC1	n
Cc1nc2sccn2c1C(=O)N1CCN(Cc2cn(-c3ccc(F)c(Cl)c3)nn2)CC1	n

Given "Cc1nc2sccn2c1C(=O)N1CCN(CCn2cc(-c3ccc(C(C)(C)C)cc3)nn2)CC1" , is recorded MIC strictly lower than 10 µM?
n

Given "Cc1nc2sc3ccccc3n2c1C(=O)N1CCN(CCn2cc(C3CC3)nn2)CC1" , is recorded MIC strictly lower than 10 µM?
n

Given "Cc1nc2sc3ccccc3n2c1C(=O)N1CCN(Cc2cn(-c3cccc([N+](=O)[O-])c3)nn2)CC1" , is recorded MIC strictly lower than 10 µM?
n

Given "Cc1nc2sccn2c1C(=O)N1CCN(Cc2cn(-c3ccc(Br)cc3)nn2)CC1" , is recorded MIC strictly lower than 10 µM?
n

Given "Cc1nc2sc3ccccc3n2c1C(=O)N1CCN(Cc2cn(-c3ccc([N+](=O)[O-])cc3)nn2)CC1" , is recorded MIC strictly lower than 10 µM?
y

Given "Cc1ccc(-n2cc(CN3CCN(C(=O)c4c(C)nc5sccn45)CC3)nn2)cc1C" , is recorded MIC strictly lower than 10 µM?
n

Given "Cc1nc2sccn2c1C(=O)N1CCN(CCn2cc(COc3ccc(Cl)cn3)nn2)CC1" , is recorded MIC strictly lower than 10 µM?
n

Given NNC(=O)c1ccncc1 [INH, isoniazid, reference compound] , is recorded MIC strictly lower than 10 µM?
y

Given "Cc1nc2sc3ccccc3n2c1C(=O)N1CCN(Cc2cn(-c3cccc(Cl)c3)nn2)CC1" , is recorded MIC strictly lower than 10 µM?
n

Given "CCCCCCCCCc1cn(CCN2CCN(C(=O)c3c(C)nc4sc5ccccc5n34)CC2)nn1" , is recorded MIC strictly lower than 10 µM?
n

Given "COc1cccc(-n2cc(CN3CCN(C(=O)c4c(C)nc5sccn45)CC3)nn2)c1" , is recorded MIC strictly lower than 10 µM?
n

Given "Cc1nc2sc3ccccc3n2c1C(=O)N1CCN(CCn2cc(-c3ccccc3)nn2)CC1" , is recorded MIC strictly lower than 10 µM?
n

Given "Cc1nc2sc3ccccc3n2c1C(=O)N1CCN(Cc2cn(-c3ccc(Cl)cc3Cl)nn2)CC1" , is recorded MIC strictly lower than 10 µM?
n

###

Parameter 'readout' = T.I. CC50/IC50; parameter 'system' = MRC-5 lung fibroblast cell line.

Solved cases below.
Cc1nc2sc3ccccc3n2c1C(=O)N1CCN(Cc2cn(-c3ccc([N+](=O)[O-])cc3)nn2)CC1 [IT10]	55.2
Cc1nc2sc3ccccc3n2c1C(=O)N1CCN(Cc2cn(-c3cccc([N+](=O)[O-])c3)nn2)CC1 [IT08]	43.2
Cc1nc2sccn2c1C(=O)N1CCN(CCn2cc(-c3ccc(C(C)(C)C)cc3)nn2)CC1 [IT02]	8.8
Cc1nc2sc3ccccc3n2c1C(=O)N1CCN(Cc2cn(-c3cccc(Cl)c3)nn2)CC1 [IT11]	7.6
Cc1nc2sccn2c1C(=O)N1CCN(CCn2cc(CSc3nc4ccccc4[nH]3)nn2)CC1 [IT04]	32.5

Record T.I. CC50/IC50 per entry; entries follow.
1. CCCCCCCCCc1cn(CCN2CCN(C(=O)c3c(C)nc4sccn34)CC2)nn1 [IT03]
2. Cc1nc2sc3ccccc3n2c1C(=O)N1CCN(CCn2cc(-c3ccc(C(C)(C)C)cc3)nn2)CC1 [IT13]
3. Cc1ccc(-n2cc(CN3CCN(C(=O)c4c(C)nc5sc6ccccc6n45)CC3)nn2)cc1C [IT09]

1. 15.8
2. 13.7
3. 37.0
